experiment: in vivo; settings: C57BL/6, mouse, brain and plasma, iv
Collected Kp at […] values appear next to each entry.
quantity.kind: Kp at […]

compound="CC1(c2cccc(-c3cncnc3)c2)N=C(N)CCS1 (configuration not stated)" quantity_kind="Kp at […]" measured_value=1.4
compound="COc1ccc(C2(c3cccc(-c4cccnc4)c3)N=C(N)CS2)cc1 (configuration not stated)" quantity_kind="Kp at […]" measured_value=0.9

----------
assay: in vivo; conditions: C57BL/6, mouse, brain and plasma, iv
quantity.kind: Kp uu at […]

molecule="COc1ccc(C2(c3cccc(-c4cccnc4)c3)N=C(N)CS2)cc1 (configuration not stated)" quantity_kind="Kp uu at […]" measured_value=1.3
molecule="CC1(c2cccc(-c3cncnc3)c2)N=C(N)CCS1 (configuration not stated)" quantity_kind="Kp uu at […]" measured_value=0.27

All values here come from ChEMBL document CHEMBL2380236.
